- System: biotinyl-Met-oxazolone
- EXPERIMENTAL DETAILS: self-aminoacylation, catalytic enhancement (BMO) (fold over background); higher = more active; k-Seq, kA / k0A0; sequences stand for … in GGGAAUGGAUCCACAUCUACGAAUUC…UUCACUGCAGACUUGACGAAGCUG
Variants at the floor of the assay were thinned out.
Label scheme, based on self-aminoacylation: category 1 (below 0.9), category 2 (0.9 to below 4), category 3 (4 or more)

{"POLYMER SEQUENCE": "CUACUUCAAACGAUCGGGCUG [Fam1A.1 aminoacylation ribozyme variant]", "TGT": "biotinyl-Met-oxazolone", "CLASSIFICATION": "category 2"}
{"POLYMER SEQUENCE": "AUUCACAUAGGUCAUGGGGUG [Fam2.2 aminoacylation ribozyme variant]", "TGT": "biotinyl-Met-oxazolone", "CLASSIFICATION": "category 3"}
{"POLYMER SEQUENCE": "AGACACCUAGGUCAUCGGGUG [Fam2.2 aminoacylation ribozyme variant]", "TGT": "biotinyl-Met-oxazolone", "CLASSIFICATION": "category 2"}
{"POLYMER SEQUENCE": "AUUACCCUGGUCAUCGCGUGA [Fam2.1 aminoacylation ribozyme variant]", "TGT": "biotinyl-Met-oxazolone", "CLASSIFICATION": "category 3"}
{"POLYMER SEQUENCE": "CCAUACUUCAAGCAAUCGGUG [Fam1B.1 aminoacylation ribozyme variant]", "TGT": "biotinyl-Met-oxazolone", "CLASSIFICATION": "category 3"}
{"POLYMER SEQUENCE": "UUUCACCUAGGUGAUCGGGUG [Fam2.2 aminoacylation ribozyme variant]", "TGT": "biotinyl-Met-oxazolone", "CLASSIFICATION": "category 2"}
{"POLYMER SEQUENCE": "CCACAUUUCAGGCAAUCGGUC [Fam1B.1 aminoacylation ribozyme variant]", "TGT": "biotinyl-Met-oxazolone", "CLASSIFICATION": "category 2"}
{"POLYMER SEQUENCE": "CCACACUUCAAACAAUCAGUC [Fam1B.1 aminoacylation ribozyme variant]", "TGT": "biotinyl-Met-oxazolone", "CLASSIFICATION": "category 1"}
{"POLYMER SEQUENCE": "AUUCACCUAGGUCCUCGGGUC [Fam2.2 aminoacylation ribozyme variant]", "TGT": "biotinyl-Met-oxazolone", "CLASSIFICATION": "category 2"}
{"POLYMER SEQUENCE": "CUACUCCACACAAUCGGUCUG [Fam1A.1 aminoacylation ribozyme variant]", "TGT": "biotinyl-Met-oxazolone", "CLASSIFICATION": "category 1"}
{"POLYMER SEQUENCE": "AAGUUGGCUAAUAGUCGCAGG [Fam3.1 aminoacylation ribozyme variant]", "TGT": "biotinyl-Met-oxazolone", "CLASSIFICATION": "category 2"}
{"POLYMER SEQUENCE": "CCGCACUUCAAGCAAUCGUUC [Fam1B.1 aminoacylation ribozyme variant]", "TGT": "biotinyl-Met-oxazolone", "CLASSIFICATION": "category 1"}
{"POLYMER SEQUENCE": "AUUCACCUAAGUCAUAGGGUG [Fam2.2 aminoacylation ribozyme variant]", "TGT": "biotinyl-Met-oxazolone", "CLASSIFICATION": "category 2"}
{"POLYMER SEQUENCE": "AUUACCCUGCUCAUUGAGUGA [Fam2.1 aminoacylation ribozyme variant]", "TGT": "biotinyl-Met-oxazolone", "CLASSIFICATION": "category 3"}
{"POLYMER SEQUENCE": "AUUACCCUGGUCAUCAAGUGA [Fam2.1 aminoacylation ribozyme variant]", "TGT": "biotinyl-Met-oxazolone", "CLASSIFICATION": "category 2"}
{"POLYMER SEQUENCE": "AUUACCCUGGUCAUCGAGCGA [Fam2.1 aminoacylation ribozyme variant]", "TGT": "biotinyl-Met-oxazolone", "CLASSIFICATION": "category 2"}
{"POLYMER SEQUENCE": "GUUACCCUGGUCAUCGCGUGA [Fam2.1 aminoacylation ribozyme variant]", "TGT": "biotinyl-Met-oxazolone", "CLASSIFICATION": "category 3"}
{"POLYMER SEQUENCE": "AUUCACCUAGCUCAACGGGUG [Fam2.2 aminoacylation ribozyme variant]", "TGT": "biotinyl-Met-oxazolone", "CLASSIFICATION": "category 2"}
{"POLYMER SEQUENCE": "CAACCUCAAACAAUCGGUCUG [Fam1A.1 aminoacylation ribozyme variant]", "TGT": "biotinyl-Met-oxazolone", "CLASSIFICATION": "category 2"}
{"POLYMER SEQUENCE": "CCACACUUCAAGCAAUAGGAC [Fam1B.1 aminoacylation ribozyme variant]", "TGT": "biotinyl-Met-oxazolone", "CLASSIFICATION": "category 1"}
{"POLYMER SEQUENCE": "AUUCCCAUAGGUCAUCGGGUG [Fam2.2 aminoacylation ribozyme variant]", "TGT": "biotinyl-Met-oxazolone", "CLASSIFICATION": "category 3"}
{"POLYMER SEQUENCE": "AUUACCCUGCACAUCGAGUGA [Fam2.1 aminoacylation ribozyme variant]", "TGT": "biotinyl-Met-oxazolone", "CLASSIFICATION": "category 3"}
{"POLYMER SEQUENCE": "AUUACCCUGAUCUUCGAGUGA [Fam2.1 aminoacylation ribozyme variant]", "TGT": "biotinyl-Met-oxazolone", "CLASSIFICATION": "category 3"}
{"POLYMER SEQUENCE": "CCACACUCCUAGCAAUCGGUC [Fam1B.1 aminoacylation ribozyme variant]", "TGT": "biotinyl-Met-oxazolone", "CLASSIFICATION": "category 1"}
{"POLYMER SEQUENCE": "CUACAUCAAAGAAUCGGUCUG [Fam1A.1 aminoacylation ribozyme variant]", "TGT": "biotinyl-Met-oxazolone", "CLASSIFICATION": "category 1"}
{"POLYMER SEQUENCE": "GCACACUUCAAGCCAUCGGUC [Fam1B.1 aminoacylation ribozyme variant]", "TGT": "biotinyl-Met-oxazolone", "CLASSIFICATION": "category 2"}
{"POLYMER SEQUENCE": "AUUGCCCUGGUCAACGAGUGA [Fam2.1 aminoacylation ribozyme variant]", "TGT": "biotinyl-Met-oxazolone", "CLASSIFICATION": "category 3"}
{"POLYMER SEQUENCE": "CUACUCCAAACAAUCGGUCUC [Fam1A.1 aminoacylation ribozyme variant]", "TGT": "biotinyl-Met-oxazolone", "CLASSIFICATION": "category 1"}
{"POLYMER SEQUENCE": "CUACUCCAAACAAUCGGUCUG [Fam1A.1 aminoacylation ribozyme variant]", "TGT": "biotinyl-Met-oxazolone", "CLASSIFICATION": "category 1"}
